meta.source: ChEMBL document CHEMBL3885861

Species: Rattus norvegicus
assay_overview: Open TG-GATES - Regimen: Single
Type: toxicity, organism-based, Sprague-Dawley
Parameters: regimen Single, gender Male, age 6 weeks
condition: in vivo, po, 300 mg/kg, 24 h, tissue Plasma, route gavage, dose level Middle
# gamma-GTP per entry
assay_metric: gamma-GTP (IU/L)

compound	number
NC(N)=Nc1nc(CSCCC(N)=NS(N)(=O)=O)cs1 [FAMOTIDINE]	0.8
COc1ccc2[nH]c([S+]([O-])Cc3ncc(C)c(OC)c3C)nc2c1 (centres undefined) [OMEPRAZOLE]	1
CCOC(=O)CCC(=O)O[C@H]1[C@H](O[C@@H]2[C@@H](C)[C@H](O[C@H]3C[C@@](C)(OC)[C@@H](O)[C@H](C)O3)[C@@H](C)C(=O)O[C@H](CC)[C@@](C)(O)[C@H](O)[C@@H](C)C(=O)[C@H](C)C[C@@]2(C)O)O[C@H](C)C[C@@H]1N(C)C [ERYTHROMYCIN ETHYLSUCCINATE]	1.2
COC1=CC(=O)C[C@@H](C)[C@]12Oc1c(Cl)c(OC)cc(OC)c1C2=O [GRISEOFULVIN]	1.4

* * *

Species on record: Rattus norvegicus
assay_overview: Open TG-GATES - Regimen: Daily Repeat
Assay type: toxicity, organism-based, Sprague-Dawley
Design: regimen Daily Repeat, gender Male, age 6 weeks
condition: in vivo, po, 1000 mg/kg, […], tissue Blood, route gavage, dose level High, time 28 day
Binary call on APTT with cut-off 20 s: strictly below means TRUE, and equality or higher means FALSE.

molecule	group_label
COc1ccc2[nH]c([S+]([O-])Cc3ncc(C)c(OC)c3C)nc2c1 (stereo not given)	FALSE
CCOc1ccc(NC(=O)CC(C)O)cc1 (stereo not given)	TRUE
NC(N)=Nc1nc(CSCCC(N)=NS(N)(=O)=O)cs1	FALSE
COC1=CC(=O)C[C@@H](C)[C@]12Oc1c(Cl)c(OC)cc(OC)c1C2=O	FALSE
CCOC(=O)CCC(=O)O[C@H]1[C@H](O[C@@H]2[C@@H](C)[C@H](O[C@H]3C[C@@](C)(OC)[C@@H](O)[C@H](C)O3)[C@@H](C)C(=O)O[C@H](CC)[C@@](C)(O)[C@H](O)[C@@H](C)C(=O)[C@H](C)C[C@@]2(C)O)O[C@H](C)C[C@@H]1N(C)C [ERYTHROMYCIN ETHYLSUCCINATE]	FALSE

* * *

Species: Rattus norvegicus
assay_overview: Open TG-GATES - Regimen: Single
Format: toxicity, organism-based, Sprague-Dawley
Design: regimen Single, gender Male, age 6 weeks
condition: in vivo, po, 0 mg/kg, 3 h, tissue Plasma, route gavage, dose level Control

compound	IP, mg/dL
CCCNC(=O)NS(=O)(=O)c1ccc(Cl)cc1 [CHLORPROPAMIDE]	8.9
CC/C(=C(\c1ccccc1)c1ccc(OCCN(C)C)cc1)c1ccccc1 [TAMOXIFEN]	10.2
CC(C)OC(=O)C(C)(C)Oc1ccc(C(=O)c2ccc(Cl)cc2)cc1 [FENOFIBRATE]	9.5
CCOC(=O)CCC(=O)O[C@H]1[C@H](O[C@@H]2[C@@H](C)[C@H](O[C@H]3C[C@@](C)(OC)[C@@H](O)[C@H](C)O3)[C@@H](C)C(=O)O[C@H](CC)[C@@](C)(O)[C@H](O)[C@@H](C)C(=O)[C@H](C)C[C@@]2(C)O)O[C@H](C)C[C@@H]1N(C)C [ERYTHROMYCIN ETHYLSUCCINATE]	8.3
COC1=CC(=O)C[C@@H](C)[C@]12Oc1c(Cl)c(OC)cc(OC)c1C2=O [GRISEOFULVIN]	9.3
CC1=C(/C=C/C(C)=C/C=C/C(C)=C/CO)C(C)(C)CCC1 [RETINOL]	8.4
CN(C)CCN(Cc1cccs1)c1ccccn1	7.7
CCOc1ccc(NC(=O)CC(C)O)cc1 (stereo not drawn) [BUCETIN]	8.6
